FYI, the data here is from PubChem BioAssay AID1117319.

Reported inhibition values for the following compounds.
- Subject of test: Virion infectivity factor (Human immunodeficiency virus type 1 group M subtype B (isolate BH10)) + Virion infectivity factor (Human immunodeficiency virus type 1 group M subtype B (isolate BRU/LAI)) + Virion infectivity factor (Human immunodeficiency virus type 1 group M subtype B (isolate PCV12)) + Virion infectivity factor (Human immunodeficiency virus type 1 group M subtype B (isolate HXB2)) + DNA dC->dU-editing enzyme APOBEC-3G (Homo sapiens) (UniProt P69720+P69721+P69722+P69723+Q9HC16)
- Assay notes: inhibitors of Vif binding to APOBEC3G peptide, primary screen, biochemical, TR-FRET, GST-Vif 1-94, biotin-A3G peptide, dose response retest (AID 1117319);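 further: Vif residues 1-94 fused to GST binding biotinylated APOBEC3G peptide 110-148; 0% = full assay without inhibitor and 100% = GST in place of GST-Vif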
- Test conditions: hits give high values
About 1,500 (0.58%) of roughly 260,000 compounds were called active. Not shown: some 5% with an inconclusive outcome. Not all results are given here. Entries with a potency or affinity are not part of this list.

Compound	Measurement units	inhibition
CC1(OC(=O)CCc2ccccc2)C(=O)C=C2C=C(c3ccc(C#N)cc3)N(CC3CC3)C=C2C1=O (stereo not given)	%	-1.42
Oc1c(Br)cc(Br)cc1C=NCc1ccccc1	%	-9.44
CC1(OC(=O)C2CCCC2)C(=O)C=C2C=C(c3ccsc3)N(C(CO)CO)C=C2C1=O (stereo not given)	%	15.2
COc1ccc(CCNC(=O)CCSc2nc(-c3ccco3)cc(C(F)(F)F)n2)cc1	%	2.48
O=C(CNS(=O)(=O)c1ccccc1Br)OCC(=O)N1CCc2ccccc21	%	4.27
